Tested on: Es-2
Assay: Primary qHTS to identify gynecologic anti-cancer compounds using libraries of approved drugs and bioactive compounds (AID 1345084); also: nearly all actives have a fitted effect of over 55% in size
Conditions: Gynecologic cancer cell panel viability, ATPlite luminescence, 48 h; series mostly up to 57.5 µM
Records with an inconclusive call do not appear. Activity calls are given as the source filed them. Calls follow the shape of the dose curve; as a rule, active = well fitted cell-killing curve with a large enough effect; inconclusive = small, poorly fitted or top-dose-only effect, or effect the other way; inactive = flat fitted curve, though single readings scatter.
Possible outcomes: Y = active, N = inactive

[[record]]
compound = "CC(C)(F)C[C@@H](N[C@@H](c1ccc(-c2ccc(S(C)(=O)=O)cc2)cc1)C(F)(F)F)C(=O)NC1(C#N)CC1"
classification = "N"

[[record]]
compound = "CN(C)CC1CCOC1(c1ccccc1)c1ccccc1 (centres undefined)"
classification = "N"

[[record]]
compound = "CC1(C)C[C@H](O)C[C@@]2(C)OC(=O)C=C12"
classification = "N"

[[record]]
compound = "O=[N+]([O-])c1cn2c(n1)OCC(OCc1ccc(OC(F)(F)F)cc1)C2 (centres undefined)"
classification = "N"

[[record]]
compound = "CCC1C(=O)OC23C=C[C@@H]4C(C(=O)O)=CO[C@H](O[C@@H]12)[C@@H]43 (some centres undefined)"
classification = "N"

[[record]]
compound = "C[C@H](NC(=O)CCc1nc2ccccc2c(=O)[nH]1)c1ccccc1"
classification = "N"

[[record]]
compound = "O=C(Nc1c(-c2cccs2)nc2ccccn12)c1ccc(Cl)cc1"
classification = "N"

[[record]]
compound = "CC(C)S(=O)(=O)N[C@H]1CCOC[C@@H]1c1ccc(-c2ccc(C#N)s2)cc1"
classification = "N"

[[record]]
compound = "CC(=O)OC1C(OC(=O)c2ccccc2)C2C(C)(C)CC(=O)CC2(C)C23CCC(C)(C2)C(O)CC13 (centres undefined)"
classification = "N"

[[record]]
compound = "O=C(Nc1ccccc1-c1cn2c(CN3CCNCC3)csc2n1)c1ccc2ccccc2n1"
classification = "N"

[[record]]
compound = "C=C1C(OC2OCC(O)C(O)C2O)CC2C(C)(C)C(O)CCC2(C)C1CC/C(C)=C\\CO (centres undefined)"
classification = "N"

[[record]]
compound = "CC12CCC3c4ccc(OC5OC(C(=O)O)C(O)C(O)C5O)cc4CCC3C1CCC2O (centres undefined)"
classification = "N"

[[record]]
compound = "COC(=O)C12C(=O)C(C)=C(O)C1(C)C(C)=CC1C3(CO)CCC(O)C(C)(C)C3CCC12C (centres undefined)"
classification = "N"

[[record]]
compound = "CCOC(=O)CCN(C(=O)c1ccc2c(c1)nc(CNc1ccc(C(=N)N)cc1)n2C)c1ccccn1"
classification = "N"

[[record]]
compound = "C=C[C@@](C)(O)CC/C=C(\\C)C(=O)O[C@@H]1[C@@H]2O[C@]2(C)[C@H]2[C@H](O[C@@H]3O[C@H](CO)[C@@H](O)[C@H](O)[C@H]3O)OC=C[C@@]12O"
classification = "N"

[[record]]
compound = "Cc1ccc(-c2ccc3c(ccc4sc5c(c43)NC[C@@H](C)NC5=O)n2)cn1"
classification = "N"

[[record]]
compound = "CC(=O)O[C@@H]1C[C@H](O)[C@@]23CO[C@H](O)[C@]1(C)C2C[C@@H](O)[C@]1(C)C3C(=O)[C@H](OC(C)=O)[C@@]2(C)[C@H](c3ccoc3)C[C@H]3O[C@]321 (some centres undefined)"
classification = "Y"

[[record]]
compound = "CC(c1ncncc1F)C(O)(Cn1cncn1)c1ccc(F)cc1F (centres undefined)"
classification = "N"

[[record]]
compound = "COc1ccc2[nH]c3c(-c4cccc5ccccc45)nccc3c2c1"
classification = "Y"

[[record]]
compound = "Cc1cn(C2C=CC(CO)O2)c(=O)[nH]c1=O (centres undefined)"
classification = "N"

[[record]]
compound = "CC(C)CC1NC(=O)C2CC3(O)c4ccccc4NC3N2C1=O (centres undefined)"
classification = "N"

[[record]]
compound = "CC(C)=CCC[C@](C)(O)[C@H]1CC[C@]2(C)[C@@H]1[C@H](O)CC1[C@@]3(C)CC[C@H](O)C(C)(C)[C@@H]3[C@@H](O[C@@H]3O[C@H](CO)[C@@H](O)[C@H](O)[C@H]3O[C@@H]3O[C@H](CO)[C@@H](O)[C@H](O)[C@H]3O)C[C@]12C (some centres undefined)"
classification = "N"

[[record]]
compound = "Cc1ccc(C(=O)Nc2noc3ccccc23)cc1"
classification = "Y"

[[record]]
compound = "O=C(c1ccc2nccnc2c1)N1CCCCC1"
classification = "N"

